target: helicase domain of the Pol θ protein (Homo sapiens); format: biochemical; settings: ATPase activity, ADP-Glo, ssDNA substrate, 60 min at room temperature, initial concentration 10 µM; read-out: Biochemical experiment IC50
reported endpoint: pIC50
# pIC50: negative log10 of molar concentration; output just the value

**Q:** Query the reported pIC50 for helicase domain of the Pol θ protein (Homo sapiens); item: COc1cnc(Cl)cc1-c1cc(-n2cccc(F)c2=O)ncc1C(=O)Nc1nc(-c2c(C)cnn2C)ns1 [Example 26]
**A:** 8.64

**Q:** What is its pIC50 for helicase domain of the Pol θ protein (Homo sapiens)? Entry: COc1cnc(C(F)F)cc1-c1cc(-n2cccc(F)c2=O)ncc1C(=O)Nc1nc(N2CC3CC3C2)ns1 (stereo not shown) [Example 28]
**A:** 7.96

**Q:** State its pIC50 on helicase domain of the Pol θ protein (Homo sapiens): COc1cnc(C(F)F)cc1-c1cc(-n2cccc(F)c2=O)ncc1C(=O)Nc1nc(-c2cnccn2)ns1 [Example 19]
**A:** 7.49

**Q:** Lab note: need pIC50 for COc1cnc(C(F)F)cc1-c1cc(-n2cccc(F)c2=O)ncc1C(=O)Nc1nc(NC(C)=O)ns1 [Example 31] on helicase domain of the Pol θ protein (Homo sapiens), anyone have it?
**A:** 7.84

**Q:** So what pIC50 did COc1cnc(C(F)F)cc1-c1cc(-n2cccc(F)c2=O)ncc1C(=O)Nc1nc(C2CC2)cs1 [Example 3] get with helicase domain of the Pol θ protein (Homo sapiens)?
**A:** 7.99

**Q:** Hello, I am looking for reported pIC50 with helicase domain of the Pol θ protein (Homo sapiens) for COc1cnc(C(F)F)cc1-c1cc(-n2cccc(F)c2=O)ncc1C(=O)Nc1nc(-c2ccncc2)cs1 [Example 2] . Could you help?
**A:** 8.25

**Q:** Requested read-out pIC50, target or system helicase domain of the Pol θ protein (Homo sapiens), entry COc1nsc(NC(=O)c2cnc(-n3cccc(F)c3=O)cc2-c2cc(C(F)F)ncc2OC)n1 [Example 7]
**A:** 8.40

###

Please provide measured IC50 for the entries that follow.
target: helicase domain of the Pol θ protein (Homo sapiens, UniProt O75417); format: biochemical; conditions: ATPase activity, ADP-Glo, ssDNA substrate, 60 min at room temperature, initial concentration 10 µM; read-out: Biochemical experiment IC50
Sequence (O75417 102-554 limits assumed): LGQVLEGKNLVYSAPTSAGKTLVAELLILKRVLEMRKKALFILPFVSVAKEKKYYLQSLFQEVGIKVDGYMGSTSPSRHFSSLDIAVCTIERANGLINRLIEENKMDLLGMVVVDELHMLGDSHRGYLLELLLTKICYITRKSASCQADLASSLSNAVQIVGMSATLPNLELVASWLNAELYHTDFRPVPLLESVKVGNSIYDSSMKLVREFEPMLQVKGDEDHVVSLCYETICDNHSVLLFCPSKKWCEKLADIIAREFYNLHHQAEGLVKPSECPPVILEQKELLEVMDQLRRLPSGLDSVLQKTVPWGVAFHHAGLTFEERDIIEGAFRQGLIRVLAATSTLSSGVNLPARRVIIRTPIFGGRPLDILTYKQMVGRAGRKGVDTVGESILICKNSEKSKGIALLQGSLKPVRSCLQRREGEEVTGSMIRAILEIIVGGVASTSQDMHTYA
Write the answer as a number in µM, unit excluded.

**Q:** Give the reported IC50 for COc1cnc(C(F)F)cc1-c1cc(-n2cccc(F)c2=O)ncc1C(=O)Nc1nc(-c2cccnc2)ns1 (system: helicase domain of the Pol θ protein (Homo sapiens, UniProt O75417)).
**A:** 0.0176

**Q:** Enter reported IC50 observed with helicase domain of the Pol θ protein (Homo sapiens, UniProt O75417) for COc1cnc(C(F)F)cc1-c1cc(-n2cccc(F)c2=O)ncc1C(=O)Nc1nc(N)ns1
**A:** 0.0341

**Q:** Please state recorded IC50 (tested on helicase domain of the Pol θ protein (Homo sapiens, UniProt O75417)) of COc1cnc(Cl)cc1-c1cc(C)ncc1C(=O)Nc1nc(C2CC2)ns1
**A:** 0.132

**Q:** Record COc1cnc(C(F)F)cc1-c1cc(-n2cccc(F)c2=O)ncc1C(=O)Nc1ncns1 : what is its IC50 with helicase domain of the Pol θ protein (Homo sapiens, UniProt O75417)?
**A:** 0.00581

###

system: DLD1 BRCA2-/- cells; assay: Cell viability assay (CTG assay), DLD1 BRCA2-/- cells; type: cell-based; details: Homo sapiens, DLD-1, 240 h; CellTiter Glo, read on Day 10, initial concentration 30 µM
Entries whose IC50 is below 20 nM take T; entries at or above 20 nM take F.

**Q:** Given the entry COc1cnc(C(F)F)cc1-c1cc(-n2cccc(F)c2=O)ncc1C(=O)Nc1nc(-c2ccc(F)cc2)ns1 [Example 12] , would its reported IC50 be below 20 nM?
**A:** F

**Q:** Does the reported IC50 of the following compound sit strictly below 20 nM? COc1cnc(C(F)F)cc1-c1cc(-n2cccc(F)c2=O)ncc1C(=O)Nc1nc(C)ns1 [Example 11]
**A:** F

**Q:** Quick check: IC50 of COc1cnc(Cl)cc1-c1cc(-n2cccc(F)c2=O)ncc1C(=O)Nc1nc(C2CC2)ns1 [Example 21] under 20 nM?
**A:** T

**Q:** Dear colleague, could you confirm whether IC50 of COc1cnc(C(F)F)cc1-c1cc(-n2cccc(F)c2=O)ncc1C(=O)Nc1nc(-c2ccccn2)ns1 [Example 8] falls below 20 nM? Thanks.
**A:** F

**Q:** Please check: IC50 for COc1cnc(C(F)F)cc1-c1cc(-n2cccc(F)c2=O)ncc1C(=O)Nc1nc(C2CC2)ns1 [Example 1] , strictly under 20 nM or not?
**A:** F

**Q:** Consider COc1cnc(C(F)F)cc1-c1cc(-n2cccc(F)c2=O)ncc1C(=O)Nc1nc(-c2ccncc2)cs1 [Example 2] . Does its IC50 lie strictly below 20 nM?
**A:** F

**Q:** I wonder whether COc1cnc(C(F)F)cc1-c1cc(-n2cccc(F)c2=O)ncc1C(=O)Nc1nccs1 [Example 4] has IC50 below 20 nM. Can you tell?
**A:** F

**Q:** Field: below-cutoff. Rule: recorded IC50 strictly less than 20 nM. Subject: COc1cnc(C(F)F)cc1-c1cc(-n2cccc(F)c2=O)ncc1C(=O)Nc1nc(-c2ccc(Cl)cc2)ns1 [Example 23]
**A:** F

**Q:** Input COc1cnc(C(F)F)cc1-c1cc(-n2cccc(F)c2=O)ncc1C(=O)Nc1nc(-c2cccnc2)ns1 [Example 13] ; condition: IC50 strictly below 20 nM. Does it hold?
**A:** F

**Q:** is_below(IC50, 20 nM) for CCCc1nsc(NC(=O)c2cnc(-n3cccc(F)c3=O)cc2-c2cc(C(F)F)ncc2OC)n1 [Example 16] ?
**A:** T

**Q:** Consider COc1cnc(C(F)F)cc1-c1cc(-n2cccc(F)c2=O)ncc1C(=O)Nc1ncns1 [Example 10] . Does its IC50 lie strictly below 20 nM?
**A:** F

**Q:** Just wondering, is IC50 of COc1cnc(C(F)F)cc1-c1cc(-n2cccc(F)c2=O)ncc1C(=O)Nc1nc(C2CCC2)ns1 [Example 33] below 20 nM?
**A:** T

**Q:** Would you kindly verify if IC50 of COc1cnc(C(F)F)cc1-c1cc(-n2cccc(F)c2=O)ncc1C(=O)Nc1nc(N2CCOCC2)ns1 [Example 24] is strictly less than 20 nM?
**A:** T

**Q:** IC50 strictly < 20 nM for this compound? COc1cnc(C(F)F)cc1-c1cc(-n2cccc(F)c2=O)ncc1C(=O)Nc1nc(C2CC2)cs1 [Example 3]
**A:** F

**Q:** Quick check: IC50 of COc1nsc(NC(=O)c2cnc(-n3cccc(F)c3=O)cc2-c2cc(C(F)F)ncc2OC)n1 [Example 7] under 20 nM?
**A:** F

**Q:** Lab note: IC50 threshold 20 nM. Does this compound come in strictly under it? COc1cnc(C(F)F)cc1-c1cc(-n2cccc(F)c2=O)ncc1C(=O)Nc1nc(-c2ncccn2)ns1 [Example 18]
**A:** T

**Q:** Hello, I'm reviewing records and need to know if IC50 of COc1cnc(Cl)cc1-c1cc(-n2cccc(F)c2=O)ncc1C(=O)Nc1nc(-c2c(C)cnn2C)ns1 [Example 26] is below 20 nM. Could you check?
**A:** T

**Q:** Problem: For the compound COc1cnc(C(F)F)cc1-c1cc(-n2cccc(F)c2=O)ncc1C(=O)Nc1nc(-c2cnccn2)ns1 [Example 19] , is IC50 under 20 nM?
**A:** F

**Q:** Hello, I'm reviewing records and need to know if IC50 of COc1cnc(C(F)F)cc1-c1cc(-n2cccc(F)c2=O)ncc1C(=O)Nc1nc(Cl)ns1 [Example 20] is below 20 nM. Could you check?
**A:** F

**Q:** hey, is IC50 for COc1cnc(C(F)F)cc1-c1cc(-n2cccc(F)c2=O)ncc1C(=O)Nc1nc(-c2c(C)ncn2C)ns1 [Example 32] lower than 20 nM or not?
**A:** T

**Q:** Lab log: compare recorded IC50 with 20 nM; is it strictly lower for COc1cnc(C(F)F)cc1-c1cc(-n2cccc(F)c2=O)ncc1C(=O)Nc1nc(-c2ccccc2)ns1 [Example 9] ?
**A:** F

**Q:** Is it true that IC50 reported for COc1cnc(C(F)F)cc1-c1cc(-n2cccc(F)c2=O)ncc1C(=O)Nc1nc(-c2c(C)cnn2C)ns1 [Example 14] is less than 20 nM?
**A:** T

**Q:** Here's an entry: COc1cnc(C(F)F)cc1-c1cc(-n2cccc(F)c2=O)ncc1C(=O)Nc1nc(C(C)(C)C)ns1 [Example 6] . Is its IC50 below 20 nM?
**A:** F

**Q:** Input COc1cnc(C(F)F)cc1-c1cc(-n2cccc(F)c2=O)ncc1C(=O)Nc1nc(N2CC3CC3C2)ns1 (stereo not shown) [Example 28] ; condition: IC50 strictly below 20 nM. Does it hold?
**A:** F

**Q:** Lab note: confirm whether the reported IC50 for this compound is below 20 nM, equality not counting. compound: COc1cnc(C(F)F)cc1-c1cc(-n2cccc(F)c2=O)ncc1C(=O)Nc1nc(-c2ccncc2)ns1 [Example 15]
**A:** T

**Q:** Take the compound COc1cnc(C(F)F)cc1-c1cc(-n2cccc(F)c2=O)ncc1C(=O)Nc1nc(N2CC3(COC3)C2)ns1 [Example 25] and say whether its IC50 is less than 20 nM.
**A:** F

**Q:** Determine whether this compound shows IC50 lower than 20 nM (ties excluded): COc1cnc(C(F)F)cc1-c1cc(-n2cccc(F)c2=O)ncc1C(=O)Nc1nc(-c2c(C)noc2C)ns1 [Example 22]
**A:** T

**Q:** Input COc1cnc(C(F)F)cc1-c1cc(-n2cccc(F)c2=O)ncc1C(=O)Nc1nc(C(C)C)ns1 [Example 17] ; condition: IC50 strictly below 20 nM. Does it hold?
**A:** T
